target-under-test: Cathepsin D (Cat D) (Homo sapiens, UniProt P07339)
Construct: Recombinant Cat D was expressed in CHO cells; made in house; host or cells: CHO cells
Sequence (P07339 65-412, species assumed): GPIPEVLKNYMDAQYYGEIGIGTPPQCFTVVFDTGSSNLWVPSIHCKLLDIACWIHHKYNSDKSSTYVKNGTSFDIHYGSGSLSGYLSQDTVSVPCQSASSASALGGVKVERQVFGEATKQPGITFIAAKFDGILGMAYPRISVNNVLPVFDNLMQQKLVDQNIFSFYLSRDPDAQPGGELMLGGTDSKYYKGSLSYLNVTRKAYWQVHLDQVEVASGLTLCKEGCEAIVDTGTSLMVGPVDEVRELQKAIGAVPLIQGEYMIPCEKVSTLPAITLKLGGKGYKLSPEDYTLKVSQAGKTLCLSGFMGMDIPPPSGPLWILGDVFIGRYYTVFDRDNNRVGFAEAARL
method-notes: In vitro enzymatic Cathepsin D (Cat D) FRET assay
Format: biochemical
condition-notes: read-out: CatD IC50
pIC50 listing for selected compounds.
# log scale: pIC50 equals minus log10 of the concentration in mol/L

Reference set (2 entries):
compound: N#Cc1cnc(C(=O)Nc2ccc(F)c([C@]3(CF)CS(=O)(=O)C4(CCC4)C(N)=N3)c2)c(Cl)c1 [Example 372]
pIC50: 3.44
//
compound: Cc1cc(OCCF)cnc1C(=O)Nc1ccc(F)c([C@]2(CF)CS(=O)(=O)C(C)(C)C(N)=N2)c1 [Example 149]
pIC50: 3.07

# input Kindly indicate its recorded pIC50. Item: CC1(C)C(N)=N[C@](C)(c2cc(Oc3nccc(-c4ccccc4)c3C#N)ccc2F)CS1(=O)=O [Example 293]
# output 4.29

# input Kindly indicate its recorded pIC50. Item: Cc1cc(OC(F)F)cnc1C(=O)Nc1ccc(F)c([C@@]2(CF)CS(=O)(=O)C3(CC3)C(N)=N2)c1 [Example 218]
# output 3.20

# input Kindly indicate its recorded pIC50. Item: COc1cnc2c(Nc3ccc(F)c([C@@]4(C)N=C(N)C5(CC5)S(=O)(=O)[C@H]4F)c3)nccc2n1 [Example 208]
# output 3.16

# input Kindly indicate its recorded pIC50. Item: CC1(C)C(N)=N[C@](C)(c2cc(Oc3cc(Br)ccn3)ccc2F)CS1(=O)=O [Example 285]
# output 3.43

# input Kindly indicate its recorded pIC50. Item: Cc1cc(C#N)cnc1C(=O)Nc1ccc(F)c([C@]2(C)CS(=O)(=O)[C@@](C)(F)C(N)=N2)c1 [Example 324]
# output 2.86

# input Kindly indicate its recorded pIC50. Item: COc1ccc(CSc2ccc(F)c([C@]3(C)CS(=O)(=O)C(C)(C)C(N)=N3)c2)cc1 [Example 252]
# output 4.44

# input Kindly indicate its recorded pIC50. Item: Cc1cc(OC(F)F)cnc1C(=O)Nc1ccc(F)c([C@]2(C)CS(=O)(=O)C(C)(C)C(N)=N2)c1 [Example 144]
# output 4.01

# input Kindly indicate its recorded pIC50. Item: CC1(C)C(N)=N[C@](C)(c2cc(NC(=O)c3cnc(OCC(F)(F)F)cn3)ccc2F)C(F)S1(=O)=O (stereo partly drawn) [Example 333]
# output 3.72

# input Kindly indicate its recorded pIC50. Item: C=C(C)c1cc(Cl)cnc1C(=O)Nc1ccc(F)c([C@]2(C)CS(=O)(=O)C(C)(C)C(N)=N2)c1 [Example 194]
# output 3.21

# input Kindly indicate its recorded pIC50. Item: COc1ccc(C(=O)Nc2ccc(F)c([C@]3(CF)CS(=O)(=O)C(C)(C)C(N)=N3)c2)nc1 [Example 457]
# output 3.09

# input Kindly indicate its recorded pIC50. Item: CC1(C)C(N)=N[C@](C)(c2cc(NC(=O)c3ccc(C(F)(F)F)cn3)ccc2F)CS1(=O)=O [Example 342]
# output 3.95

----------
target-under-test: Cathepsin D (Cat D) (Homo sapiens, UniProt P07339)
Construct: Recombinant Cat D was expressed in CHO cells; made in house; host or cells: CHO cells
method-notes: In vitro enzymatic Cathepsin D (Cat D) FRET assay
Assay type: biochemical
condition-notes: read-out: CatD IC50
measured-parameter: pIC50
# log scale: pIC50 equals minus log10 of the concentration in mol/L

chemical-smiles: C[C@@]1(c2cccc(Br)c2)CS(=O)(=O)C2(CCC2)C(N)=N1
pIC50: 4.51
--
chemical-smiles: CC1(C)C(N)=N[C@](CF)(c2cc(NC(=O)c3ccc(OCC#CCF)cn3)ccc2F)CS1(=O)=O
pIC50: 3.57
--
chemical-smiles: CC1(C)C(N)=N[C@](CF)(c2cc(Nc3nncc4cc(Br)ccc34)ccc2F)CS1(=O)=O
pIC50: 3.43
--
chemical-smiles: CC1(C)C(N)=N[C@](C)(c2cc(NC(=O)c3ccc4ccccc4n3)ccc2F)CS1(=O)=O
pIC50: 3.60
--
chemical-smiles: C=C(C)c1cc(Cl)cnc1C(=O)Nc1ccc(F)c([C@]2(CF)CS(=O)(=O)C(C)(C)C(N)=N2)c1
pIC50: 3.36

# input Kindly indicate its recorded pIC50. Item: "CC1(C)C(N)=N[C@](C)(c2cc(Oc3nccc4cc(Cl)cnc34)ccc2F)CS1(=O)=O"
# output 3.55

----------
target-under-test: Cathepsin D (Cat D) (Homo sapiens)
Construct: Recombinant Cat D was expressed in CHO cells; made in house; host or cells: CHO cells
method-notes: In vitro enzymatic Cathepsin D (Cat D) FRET assay
Type: biochemical
condition-notes: read-out: CatD IC50
measured-parameter: IC50 (µM)
// note: answer is a bare numeric in µM

Reference set (2 entries):
molecule: CC1(C)C(N)=N[C@](CF)(c2cc(NC(=O)c3ccc(C(F)(F)F)cn3)ccc2F)CS1(=O)=O
u: µM
IC50: 217

molecule: CC1(C)C(N)=N[C@@](C)(c2cc(Nc3nccc4nc(O)cnc34)cc(F)c2F)CS1(=O)=O
u: µM
IC50: 175

# input Kindly indicate its recorded IC50. Item: C[C@@]1(c2cc(Nc3nccc4cc(Cl)cnc34)ccc2F)CS(=O)(=O)C2(CCOC2)C(N)=N1 (mixture of isomers)
# output 63.6

----------
target-under-test: Cathepsin D (Cat D) (Homo sapiens)
Construct: Recombinant Cat D was expressed in CHO cells; made in house; host or cells: CHO cells
method-notes: In vitro enzymatic Cathepsin D (Cat D) FRET assay
Format: biochemical
condition-notes: read-out: CatD IC50
measured-parameter: pIC50
# log scale: pIC50 equals minus log10 of the concentration in mol/L

Reference set (4 entries):
compound: CC#CCOc1cnc(C(=O)Nc2ccc(F)c([C@@]3(C)N=C(N)C(C)(C)S(=O)(=O)C3F)c2)cn1 (stereo partly shown)
pIC50: 4.35

compound: Cc1cc(Cl)cnc1C(=O)Nc1cnc(F)c([C@]2(C)CS(=O)(=O)C3(CCC3)C(N)=N2)c1
pIC50: 3.98

compound: Cc1cc(C(F)F)cnc1C(=O)Nc1ccc(F)c([C@@]2(C)N=C(N)C3(CC3)S(=O)(=O)[C@@H]2F)c1
pIC50: 3.71

compound: NC1=N[C@](CF)(c2cc(N)ccc2F)CS(=O)(=O)C12CCC2
pIC50: 4.16

// below: pIC50 requested for another compound
# input Kindly indicate its recorded pIC50. Item: "CC1(C)C(N)=N[C@](CF)(c2cc(NC(=O)c3ncc(Cl)cc3F)ccc2F)CS1(=O)=O"
# output 3.44

----------
IC50 listing for selected compounds.
Tested on: Aβ40 in conditioned medium of cells stably expressing Amyloid Precursor Protein (APP)
method-notes: In vitro BACE cell-based assay (HEK cell assay), Aβ40 sandwich ELISA
condition-notes: Homo sapiens, HEK293

# input Kindly indicate its recorded IC50. Item: Cc1cc(Cl)cnc1C(=O)Nc1ccc(F)c([C@]2(C)CS(=O)(=O)[C@@](C)(F)C(N)=N2)c1 [Example 388]
# output 47.9 nM

----------
target-under-test: Cathepsin D (Cat D) (Homo sapiens)
Construct: Recombinant Cat D was expressed in CHO cells; made in house; host or cells: CHO cells
method-notes: In vitro enzymatic Cathepsin D (Cat D) FRET assay
Type: biochemical
condition-notes: read-out: CatD IC50
measured-parameter: pIC50
# log scale: pIC50 equals minus log10 of the concentration in mol/L

Reference set (3 entries):
molecule: CC1(C)C(N)=N[C@](C)(c2cc(Oc3nccc4ccsc34)ccc2F)CS1(=O)=O [Example 291]
target-under-test: Cathepsin D (Cat D) (Homo sapiens)
pIC50: 3.62
//
molecule: CC1(C)C(N)=N[C@](C)(c2cc(Nc3nccc4nc(OCC#N)cnc34)ccc2F)CS1(=O)=O [Example 443]
target-under-test: Cathepsin D (Cat D) (Homo sapiens)
pIC50: 3.46
//
molecule: CC1(C)C(N)=N[C@](C)(c2cc(Sc3cc(C#N)ccn3)ccc2F)CS1(=O)=O [Example 440]
target-under-test: Cathepsin D (Cat D) (Homo sapiens)
pIC50: 3.66

# input Kindly indicate its recorded pIC50. Item: CC1(C)C(N)=N[C@](C)(c2cc(Oc3ccc(C(F)(F)F)cn3)ccc2F)CS1(=O)=O [Example 279]
# output 3.73

# input Kindly indicate its recorded pIC50. Item: CC1(C)C(N)=N[C@](CF)(c2cc(Nc3ncnc4cc(C#N)cnc34)ccc2F)CS1(=O)=O [Example 236]
# output 4.25

# input Kindly indicate its recorded pIC50. Item: C[C@@]1(c2cc(NC(=O)c3ccc(Cl)cn3)ccc2F)CS(=O)(=O)CC(N)=N1 [Example 29]
# output 3.93

# input Kindly indicate its recorded pIC50. Item: Cc1nc(F)c([C@]2(C)CS(=O)(=O)C(C)(C)C(N)=N2)cc1NC(=O)c1ccc(Cl)cn1 [Example 397]
# output 3.28

Measured values drawn from patent US20140107109A1 for this set.
